- ASSAY_METHOD_TEXT: Time at which Cmax was reached was determined for the compound after po dose of 5.46 mg/kg in rats
- Type: ADME, organism-based
- Set-up: dose 5.46 mg/kg, route oral
- APPLIED_CONDITIONS: rat, in vivo
MEASURE: Tmax
Write the quantity with the unit trailing the number.

Ask: Look up Tmax: `CC(C)(C)OC(=O)c1ncn2c1CN(C(=O)N1CCCC1)c1cc(Cl)ccc1-2.CCCC(=O)O`
Reply: 1 h

---

For each of the compounds below, state its inhibition.
- TESTED_TARGET: GABA-A receptor; anion channel (Rattus norvegicus) (UniProt O09028+P15431+P18506+P18508+P19969+P20236+P23574+P23576+P28471+P28473+P30191+P62813+P63079+P63138+Q91ZM7+Q9ES14)
- ASSAY_METHOD_TEXT: Displacement of [3H]flunitrazepam from GABA-A benzodiazepine receptor of rat cortical membranes
- Type: cell membranes
- Design: concentration or dose not given beside the values
- APPLIED_CONDITIONS: Membrane, concentration not given here
Number in %, nothing else.

Ask: Look up inhibition: CC1CN(C)CC(C)N1C(=O)N1Cc2c(C(=O)OC(C)(C)C)ncn2-c2ccc(Cl)cc21 (configuration not stated)
Reply: 32

Ask: Look up inhibition: CC1CNCC(C)N1C(=O)N1Cc2c(C(=O)OC(C)(C)C)ncn2-c2ccc(F)cc21 (configuration not stated)
Reply: 69

Ask: Look up inhibition: `C[C@@H]1CN(C(=O)N2Cc3c(C(=O)OC(C)(C)C)ncn3-c3ccc(Cl)cc32)C[C@H](C)N1S(C)(=O)=O.ClCCl`
Reply: 8

Ask: Look up inhibition: `CC(=O)N1[C@H](C)CN(C(=O)N2Cc3c(C(=O)OC(C)(C)C)ncn3-c3ccc(Cl)cc32)C[C@@H]1C`
Reply: 22

Ask: Look up inhibition: `CC1(C)CN(C(=O)N2Cc3c(C(=O)OC(C)(C)C)ncn3-c3ccc(Cl)cc32)CC(C)(C)N1`
Reply: 47

Ask: Look up inhibition: `C[C@H]1CN(C(=O)N2Cc3c(C(=O)OC(C)(C)C)ncn3-c3ccc(C(F)(F)F)cc32)CCN1`
Reply: 21

Ask: Look up inhibition: `C[C@@H]1CN(C(=O)N2c3cc(Cl)ccc3-n3cnc(C(=O)OC(C)(C)C)c3C2(C)C)C[C@H](C)N1`
Reply: 94

Ask: Look up inhibition: `CC(C)(C)OC(=O)c1ncn2c1CN(C(=O)N1CCN(c3ccccn3)CC1)c1cc(Cl)ccc1-2`
Reply: 3.4

Ask: Look up inhibition: `Cc1ccc2c(c1)N(C(=O)N1CCN[C@H](C)C1)Cc1c(C(=O)OC(C)(C)C)ncn1-2`
Reply: 51

Ask: Look up inhibition: `C[C@@H]1CN(C(=O)N2Cc3c(C(=O)OC(C)(C)C)ncn3-c3ccc(C(F)(F)F)cc32)C[C@@H](C)N1`
Reply: 24

Ask: Look up inhibition: `C[C@@H]1CN(C(=O)N2Cc3c(C(=O)OC(C)(C)C)ncn3-c3cccc(Cl)c32)C[C@H](C)N1`
Reply: 44

Ask: Look up inhibition: `C[C@@H]1CN(C(=O)N2Cc3c(C(=O)OC(C)(C)C)ncn3-c3cccc(Cl)c32)C[C@H](C)N1C`
Reply: 49

Ask: Look up inhibition: `C[C@@H]1CN(C(=O)N2Cc3c(C(=O)OC(C)(C)C)ncn3-c3ccc(C(F)(F)F)cc32)C[C@H](C)N1C`
Reply: 17

Ask: Look up inhibition: `CC1(C)CN(C(=O)N2Cc3c(C(=O)OC(C)(C)C)ncn3-c3ccc(Cl)cc32)CCN1`
Reply: 13

Ask: Look up inhibition: `CCCC(=O)O.C[C@@H]1CN(C(=O)N2Cc3c(C(=O)OC(C)(C)C)ncn3-c3ccc(Cl)cc32)C[C@H](C)N1`
Reply: 71

Ask: Look up inhibition: `C[C@@H]1CN(C(=O)N2Cc3c(C(=O)OC(C)(C)C)ncn3-c3ccc(Cl)cc32)C[C@H](C)N1C`
Reply: 86

Ask: Look up inhibition: `Cc1ccc2c(c1)N(C(=O)N1C[C@H](C)N[C@@H](C)C1)Cc1c(C(=O)OC(C)(C)C)ncn1-2`
Reply: 17

Ask: Look up inhibition: CC1CN(C(=O)N2Cc3c(C(=O)OC(C)(C)C)ncn3-c3ccc(Cl)cc32)C(C)CN1.O=C(O)CC(=O)O (configuration not stated)
Reply: 71

Ask: Look up inhibition: CC(C)(C)OC(=O)c1ncn2c1CN(C(=O)N1CC3CC1CN3)c1cc(Cl)ccc1-2 (configuration not stated)
Reply: 4

Ask: Look up inhibition: `C[C@@H]1CN(C(=O)N2Cc3c(C(=O)OC(C)(C)C)ncn3-c3ccc(Cl)cc32)C[C@@H](C)N1`
Reply: 62

Ask: Look up inhibition: `CC(C)(C)OC(=O)c1ncn2c1CN(C(=O)N1CCCCC1)c1ccccc1-2`
Reply: 44

Ask: Look up inhibition: `Cc1ccc2c(c1)N(C(=O)N1CCN[C@@H](C)C1)Cc1c(C(=O)OC(C)(C)C)ncn1-2`
Reply: 32

Ask: Look up inhibition: `CN1C2CCC1CN(C(=O)N1Cc3c(C(=O)OC(C)(C)C)ncn3-c3ccc(Cl)cc31)C2`
Reply: 26

Ask: Look up inhibition: `C[C@@H]1CN(C(=O)N2Cc3c(C(=O)OC(C)(C)C)ncn3-c3ccc(F)cc32)C[C@H](C)N1C`
Reply: 29

Ask: Look up inhibition: `C[C@H]1NCCN(C(=O)N2Cc3c(C(=O)OC(C)(C)C)ncn3-c3ccc(Cl)cc32)[C@H]1C`
Reply: 78

Ask: Look up inhibition: `C[C@@H]1CN(C(=O)N2Cc3c(C(=O)OC(C)(C)C)ncn3-c3ccc(Cl)cc32)C[C@H](C)N1CC(F)(F)F`
Reply: 19

Ask: Look up inhibition: CN1CC2CC1CN2C(=O)N1Cc2c(C(=O)OC(C)(C)C)ncn2-c2ccc(Cl)cc21 (configuration not stated)
Reply: 11

Ask: Look up inhibition: `Cc1ccc2c(c1)N(C(=O)N1C[C@@H](C)N(C)[C@@H](C)C1)Cc1c(C(=O)OC(C)(C)C)ncn1-2`
Reply: 64

Ask: Look up inhibition: `CN1CCN(C(=O)N2Cc3c(C(=O)OC(C)(C)C)ncn3-c3ccc(Cl)cc32)CC1`
Reply: 29

Ask: Look up inhibition: `CC(C)(C)OC(=O)c1ncn2c1CN(C(=O)N1CCN(C3CC3)CC1)c1cc(Cl)ccc1-2`
Reply: 24

Ask: Look up inhibition: CC1CN(C(=O)N2Cc3c(C(=O)OC(C)(C)C)ncn3-c3ccc(Cl)cc32)CCN1 (configuration not stated)
Reply: 68

Ask: Look up inhibition: `C[C@@H]1CN(C(=O)N2Cc3c(C(=O)OC(C)(C)C)ncn3-c3ccc(C(F)(F)F)cc32)CCN1`
Reply: 30
